Hello, the source for this data is ChEMBL document CHEMBL1201862, in case you need it.

target.entity: Zinc finger protein mex-5 (Caenorhabditis elegans, UniProt Q9XUB2)
Sequence (Q9XUB2 whole entry): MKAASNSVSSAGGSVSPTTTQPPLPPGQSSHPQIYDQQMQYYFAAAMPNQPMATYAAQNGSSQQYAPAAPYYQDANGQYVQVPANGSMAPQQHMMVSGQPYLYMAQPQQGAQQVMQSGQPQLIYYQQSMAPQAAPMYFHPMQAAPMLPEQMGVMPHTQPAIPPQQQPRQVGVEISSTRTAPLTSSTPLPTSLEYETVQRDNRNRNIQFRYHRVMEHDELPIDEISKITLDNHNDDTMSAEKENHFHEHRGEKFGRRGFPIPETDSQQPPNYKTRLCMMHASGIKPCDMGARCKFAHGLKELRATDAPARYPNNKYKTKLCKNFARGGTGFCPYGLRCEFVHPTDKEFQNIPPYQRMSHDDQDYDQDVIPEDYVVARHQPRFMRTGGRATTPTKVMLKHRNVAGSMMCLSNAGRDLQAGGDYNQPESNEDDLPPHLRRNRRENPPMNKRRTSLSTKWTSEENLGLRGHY
protocol.notes: MEX-5/TCR-2 RNA interaction inhibitors, dose response, biochemical, C. elegans, fluorescence polarization (AID 1960)
Active and inactive are the calls of the source.
endpoint.name: EC50

stdin: Field request: EC50 | item: O=c1[nH]c(=S)[nH]c2c1C(c1ccc(Br)cc1)c1c([nH]c(=S)[nH]c1=O)O2
stdout: 4.53 µM (active)

stdin: Thanks! And O=C(COC(=O)CCc1c[nH]c(=O)[nH]1)Nc1ccccc1Cl ?
stdout: 53.5 µM (active)

stdin: Thanks! And CCCCCCn1c(=O)[nH]c2nc3cc(N)ccc3nc2c1=O ?
stdout: > 300 µM (inconclusive)

stdin: Thanks! And NC(=O)c1snnc1-c1ccccc1 ?
stdout: > 300 µM (not active)

stdin: Thanks! And CCC(=S)/C=C1\Sc2ccc3ccccc3c2N1CCCS(=O)(=O)O ?
stdout: > 300 µM (not active)

stdin: Thanks! And Cc1nn(-c2ccccc2)c(N2CCCC2)c1/C=N/NC(=O)c1cc(-c2cccnc2)nc2ccccc12 ?
stdout: > 300 µM (not active)

stdin: Thanks! And NS(=O)(=O)c1ccc(-c2ccc(/C=C3\SC(=O)NC3=O)o2)cc1 ?
stdout: 33.4 µM (active)

stdin: Thanks! And Cc1nc(-c2ccc(O)c(O)c2)cs1 ?
stdout: 21.3 µM (active)

###

target.entity: Protein skinhead-1 (Caenorhabditis elegans, UniProt P34707)
Sequence (P34707 whole entry): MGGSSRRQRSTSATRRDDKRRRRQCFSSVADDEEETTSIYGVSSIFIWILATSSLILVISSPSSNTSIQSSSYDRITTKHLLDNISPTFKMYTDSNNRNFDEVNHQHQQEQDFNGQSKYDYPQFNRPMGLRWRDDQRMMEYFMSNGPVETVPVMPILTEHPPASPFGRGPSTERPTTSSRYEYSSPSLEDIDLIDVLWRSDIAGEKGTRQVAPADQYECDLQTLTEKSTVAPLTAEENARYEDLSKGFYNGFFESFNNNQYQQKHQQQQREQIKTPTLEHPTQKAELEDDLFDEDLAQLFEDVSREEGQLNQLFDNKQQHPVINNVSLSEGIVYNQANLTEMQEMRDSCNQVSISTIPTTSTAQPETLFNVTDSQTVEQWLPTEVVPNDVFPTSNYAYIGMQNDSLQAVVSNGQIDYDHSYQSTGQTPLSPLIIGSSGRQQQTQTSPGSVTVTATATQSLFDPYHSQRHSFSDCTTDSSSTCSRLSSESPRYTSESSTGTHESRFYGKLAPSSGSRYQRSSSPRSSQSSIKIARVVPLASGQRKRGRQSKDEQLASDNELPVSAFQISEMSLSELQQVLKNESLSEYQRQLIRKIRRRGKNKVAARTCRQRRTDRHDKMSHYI
Type: functional
Activity calls are given as the source filed them.
Would you mind answering with one of these outcomes? active, inactive

stdin: Hi, do you know how Oc1cc2c(c(Cl)c1O)CCNCC2c1ccccc1 (stereo not drawn) came out in this test?
stdout: inactive

stdin: Thanks! And Cc1cc2cc(CNC(=O)c3cccc([N+](=O)[O-])c3)ccc2n1C ?
stdout: inactive

stdin: Thanks! And CC(C)(C)c1ccc(C2=CSC3=NCCN23)cc1 ?
stdout: inactive

stdin: Thanks! And N#Cc1ccccc1OCC(O)CS(=O)(=O)c1ccccc1 (stereo not drawn) ?
stdout: inactive

stdin: Thanks! And COc1ccc(C(C(=O)NC2CCCC2)N(C(=O)c2snc(-c3ccc(F)cc3)c2N)c2ccc(F)cc2)cc1 (stereo not drawn) ?
stdout: inactive

stdin: Thanks! And Cc1nc(-c2cccc(NC(=O)c3ccco3)c2)cs1 ?
stdout: inactive

stdin: Thanks! And Clc1ccc(-c2cc(CSc3ccccc3)on2)cc1 ?
stdout: active

stdin: Thanks! And Cc1oc(-c2ccc(-c3ccccc3)cc2)nc1CN(C)C1CCOC1 (stereo not drawn) ?
stdout: active

stdin: Thanks! And Clc1ccc(-c2nc3cc(CN4CCCCC4)ccc3o2)cc1 ?
stdout: active

stdin: Thanks! And CC(=O)Nc1ccc2c(c1)Cc1c-2cc(Br)c(N)c1Br ?
stdout: inactive

stdin: Thanks! And N=c1c(C(=O)NCc2ccccc2)cc2c(=O)n3ccccc3nc2n1Cc1ccco1 ?
stdout: inactive

stdin: Thanks! And CCCc1cc2nnc(SCC(=O)N(C)C3CCCCC3)n2c(N)n1 ?
stdout: inactive

stdin: Thanks! And CCCOc1ccc(C(=O)C2=C(O)C(=O)N(c3cc(C)on3)C2c2ccc(C(=O)OC)cc2)cc1 (stereo not drawn) ?
stdout: inactive

###

protocol.notes: Luminescence Cell-Based Dose Retest to Confirm Inhibitors of Cancer Stem Cells. [Related pubchem assays (depositor defined):AID2717, AID2721]
Assay type: functional
test.conditions: Homo sapiens
Active and inactive are the calls of the source.
endpoint.name: AC50

stdin: Field request: AC50 | item: CCn1c(C)nc2cc(C(=O)N/N=C/c3cccc(OC)c3O)ccc21
stdout: 8.16 µM (active)

stdin: Thanks! And Cc1cccc(N/N=C(/C=O)C(=O)c2cccs2)c1 ?
stdout: 2.58 µM (active)

stdin: Thanks! And CCOc1cccc(/C=N/NC(=O)c2cc(C3CC3)[nH]n2)c1O ?
stdout: 5.71 µM (active)

stdin: Thanks! And Cc1nc2ccccc2n1-c1nc(-c2ccco2)cc(C(F)(F)F)n1 ?
stdout: 0.82 µM (active)

###

System: Streptococcus sp. 'group A'
protocol.notes: growth inhibition of control SK(-) GAS strain, dose response, counter-screen for streptokinase expression inhibitor project, luminescence, kanamycin, BacTiterGlo, confirmation (AID 1900)
Format: functional, organism-based
Activity calls are given as the source filed them.
endpoint.name: EC50

stdin: For the record CC1(C)Cc2c(sc(NC(=O)c3ccc(C(=O)c4ccccc4)cc3)c2C(N)=O)C(C)(C)N1 , what value of EC50 is listed for Streptococcus sp. 'group A'?
stdout: 26.3 µM (active)

stdin: Thanks! And CCN(CC(=O)NCC1CCCO1)S(=O)(=O)c1ccc(Cl)cc1 (stereo unspecified) ?
stdout: > 150 µM (not active)

stdin: Thanks! And Fc1ccc2nc(Nc3nc4cc5c(cc4s3)OCO5)sc2c1 ?
stdout: 7.04 µM (active)

stdin: Thanks! And CCOC(=O)c1cccc(N2C(N)=NC(N)=NC2(C)C)c1 ?
stdout: 0.127 µM (active)

stdin: Thanks! And COc1ccc(CN2C(=O)c3ccccc3C(/C=N\OCc3ccc(C)cc3)C2=O)cc1 (stereo unspecified) ?
stdout: 1.67 µM (active)

stdin: Thanks! And Cc1ccccc1Nc1nc(N)nc(CN(C)Cc2ccccc2Cl)n1 ?
stdout: > 150 µM (not active)

###

target.entity: RNA-binding protein pos-1 (Caenorhabditis elegans)
Sequence (G5EF15 whole entry, the tested form may be a part): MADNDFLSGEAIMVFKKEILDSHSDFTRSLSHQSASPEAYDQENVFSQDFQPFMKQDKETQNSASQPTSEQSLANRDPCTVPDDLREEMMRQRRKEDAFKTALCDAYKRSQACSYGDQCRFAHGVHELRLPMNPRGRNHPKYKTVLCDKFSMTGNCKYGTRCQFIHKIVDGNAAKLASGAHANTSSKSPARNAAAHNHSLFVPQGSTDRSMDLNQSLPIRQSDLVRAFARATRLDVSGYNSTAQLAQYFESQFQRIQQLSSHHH
protocol.notes: inhibitors of POS-1/mex-3 RNA binding, dose response, biochemical, fluorescence polarization (AID 1964);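 further: purified POS-1 fused to maltose binding protein made in E. coli; potency of compounds blocking POS-1 binding to fluorescent RNA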
Active and inactive are the calls of the source.
For each record, write down the corresponding EC50.

stdin: Field request: EC50 | item: NC(=O)c1snnc1-c1ccccc1
stdout: > 300 µM (not active)

stdin: Thanks! And O=C(COC(=O)CCc1c[nH]c(=O)[nH]1)Nc1ccccc1Cl ?
stdout: > 300 µM (not active)

stdin: Thanks! And NS(=O)(=O)c1ccc(-c2ccc(/C=C3\SC(=O)NC3=O)o2)cc1 ?
stdout: > 300 µM (not active)

stdin: Thanks! And CCC(=S)/C=C1\Sc2ccc3ccccc3c2N1CCCS(=O)(=O)O ?
stdout: > 300 µM (not active)

stdin: Thanks! And COCCNC(=O)Cn1cc(/C=C2\C(=O)NC(=O)N(c3ccccc3F)C2=O)c2ccccc21 ?
stdout: 6.32 µM (active)

stdin: Thanks! And Cc1nn(-c2ccccc2)c(N2CCCC2)c1/C=N/NC(=O)c1cc(-c2cccnc2)nc2ccccc12 ?
stdout: > 300 µM (not active)

stdin: Thanks! And Cc1nc(-c2ccc(O)c(O)c2)cs1 ?
stdout: 36.6 µM (active)

stdin: Thanks! And CCCCCCn1c(=O)[nH]c2nc3cc(N)ccc3nc2c1=O ?
stdout: > 300 µM (inconclusive)

stdin: Thanks! And O=c1[nH]c(=S)[nH]c2c1C(c1ccc(Br)cc1)c1c([nH]c(=S)[nH]c1=O)O2 ?
stdout: 4.86 µM (inconclusive)

###

target.entity: Fatty acid synthase (Homo sapiens)
Sequence (P49327 whole entry, the tested form may be a part): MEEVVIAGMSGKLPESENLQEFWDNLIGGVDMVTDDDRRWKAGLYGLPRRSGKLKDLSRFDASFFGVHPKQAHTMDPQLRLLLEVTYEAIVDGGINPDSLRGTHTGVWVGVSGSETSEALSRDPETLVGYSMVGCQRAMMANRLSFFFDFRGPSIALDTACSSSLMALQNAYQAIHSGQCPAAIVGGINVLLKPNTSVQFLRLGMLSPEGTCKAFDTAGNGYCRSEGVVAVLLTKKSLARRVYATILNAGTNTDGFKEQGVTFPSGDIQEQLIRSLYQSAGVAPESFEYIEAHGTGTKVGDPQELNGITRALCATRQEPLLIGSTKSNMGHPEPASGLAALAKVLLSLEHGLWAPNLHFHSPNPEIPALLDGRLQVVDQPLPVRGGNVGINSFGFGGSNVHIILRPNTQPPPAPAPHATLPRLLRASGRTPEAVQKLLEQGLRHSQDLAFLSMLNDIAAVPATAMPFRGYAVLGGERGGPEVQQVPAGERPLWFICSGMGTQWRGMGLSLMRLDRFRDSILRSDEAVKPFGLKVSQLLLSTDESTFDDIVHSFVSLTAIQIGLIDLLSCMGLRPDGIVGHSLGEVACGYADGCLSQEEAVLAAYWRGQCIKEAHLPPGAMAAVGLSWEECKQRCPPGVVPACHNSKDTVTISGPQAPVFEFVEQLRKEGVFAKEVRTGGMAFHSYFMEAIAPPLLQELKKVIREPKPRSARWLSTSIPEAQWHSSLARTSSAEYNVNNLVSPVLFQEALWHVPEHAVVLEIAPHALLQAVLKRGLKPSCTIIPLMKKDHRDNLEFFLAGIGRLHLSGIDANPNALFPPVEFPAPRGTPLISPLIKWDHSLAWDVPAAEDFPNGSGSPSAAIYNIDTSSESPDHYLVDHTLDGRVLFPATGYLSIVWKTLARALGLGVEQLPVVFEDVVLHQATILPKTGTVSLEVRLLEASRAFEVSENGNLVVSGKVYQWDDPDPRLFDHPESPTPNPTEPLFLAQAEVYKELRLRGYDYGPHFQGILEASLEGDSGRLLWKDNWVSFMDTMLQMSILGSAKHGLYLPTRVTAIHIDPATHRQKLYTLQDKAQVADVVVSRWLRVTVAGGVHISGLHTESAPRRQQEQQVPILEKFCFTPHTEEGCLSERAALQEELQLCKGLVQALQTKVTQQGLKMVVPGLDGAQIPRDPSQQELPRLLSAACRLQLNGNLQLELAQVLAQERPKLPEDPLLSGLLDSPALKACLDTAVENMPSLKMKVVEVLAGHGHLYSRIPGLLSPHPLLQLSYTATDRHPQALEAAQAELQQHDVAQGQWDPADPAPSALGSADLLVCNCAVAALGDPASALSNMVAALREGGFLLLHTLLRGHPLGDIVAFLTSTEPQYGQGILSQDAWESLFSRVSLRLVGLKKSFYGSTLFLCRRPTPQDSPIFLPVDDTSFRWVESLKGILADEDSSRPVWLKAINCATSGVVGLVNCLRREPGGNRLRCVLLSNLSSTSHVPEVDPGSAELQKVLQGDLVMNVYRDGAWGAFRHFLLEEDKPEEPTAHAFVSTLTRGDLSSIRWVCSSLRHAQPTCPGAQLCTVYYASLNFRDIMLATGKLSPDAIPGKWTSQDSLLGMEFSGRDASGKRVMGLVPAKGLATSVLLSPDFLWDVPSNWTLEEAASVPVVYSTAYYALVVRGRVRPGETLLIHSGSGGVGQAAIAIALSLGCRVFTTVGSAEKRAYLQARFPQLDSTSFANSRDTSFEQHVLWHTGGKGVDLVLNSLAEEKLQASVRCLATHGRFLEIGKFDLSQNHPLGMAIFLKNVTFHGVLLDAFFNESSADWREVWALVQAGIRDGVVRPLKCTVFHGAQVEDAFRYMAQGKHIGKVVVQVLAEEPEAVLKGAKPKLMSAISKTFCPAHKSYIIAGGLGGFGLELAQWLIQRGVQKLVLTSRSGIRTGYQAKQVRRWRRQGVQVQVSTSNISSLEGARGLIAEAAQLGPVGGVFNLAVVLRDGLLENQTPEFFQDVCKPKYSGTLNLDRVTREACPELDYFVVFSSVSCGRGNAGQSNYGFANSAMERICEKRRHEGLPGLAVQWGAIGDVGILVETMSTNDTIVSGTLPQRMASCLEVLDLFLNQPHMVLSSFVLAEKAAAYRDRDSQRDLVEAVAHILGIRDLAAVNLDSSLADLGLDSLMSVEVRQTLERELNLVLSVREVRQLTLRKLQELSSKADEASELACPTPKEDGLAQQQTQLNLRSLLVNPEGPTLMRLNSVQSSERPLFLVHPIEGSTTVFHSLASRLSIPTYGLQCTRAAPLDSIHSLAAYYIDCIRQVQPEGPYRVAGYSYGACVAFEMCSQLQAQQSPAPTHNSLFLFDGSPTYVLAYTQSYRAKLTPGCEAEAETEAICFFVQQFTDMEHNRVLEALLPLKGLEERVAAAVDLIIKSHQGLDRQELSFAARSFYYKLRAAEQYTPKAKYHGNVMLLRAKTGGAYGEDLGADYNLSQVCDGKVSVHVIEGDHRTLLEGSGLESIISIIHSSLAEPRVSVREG
protocol.notes: FAS thioesterase domain inhibitors, dose response, biochemical, endpoint fluorescence intensity, uHTS hits (AID 624327);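 further: fluorescence from hydrolysis of an O-methyl fluorescein acyl ester substrate by the enzyme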
Format: functional
Activity calls are given as the source filed them.
endpoint.name: IC50

stdin: Field request: IC50 | item: CC(=O)Nc1ccc(NC(=O)c2ccccc2S(=O)(=O)c2ccc([N+](=O)[O-])cc2)cc1
stdout: 13.8 µM (active)

stdin: Thanks! And CCOC(=O)c1cc2c(=Cc3ccc(N(C)C)cc3)c3ccccc3n2[n+]1C ?
stdout: 12.9 µM (active)

stdin: Thanks! And CC[C@]1(c2cccc(C)c2)C(=O)N(C(=O)OC)N1C(=O)OC ?
stdout: 9.04 µM (active)

stdin: Thanks! And CC(C)(C)SCCNC(=O)/C=C/c1cccc([N+](=O)[O-])c1 ?
stdout: 4.09 µM (active)

stdin: Thanks! And Cc1ccc([N+](=O)[O-])cc1NC(=O)CN(C(=O)c1ccc(Cl)cc1)C1CCCCC1 ?
stdout: 1.18 µM (active)

stdin: Thanks! And O=C(NCCCCc1ccccc1)C1CC(c2cccc([N+](=O)[O-])c2)=NO1 (stereo unspecified) ?
stdout: 3.11 µM (active)

###

target.entity: Ubiquitin-conjugating enzyme E2 N (Homo sapiens);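 further: Dose-response confirmation in a TR-FRET assay detecting UBC13-driven polyubiquitin chain formation, inhibition measured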
Sequence (P61088 whole entry): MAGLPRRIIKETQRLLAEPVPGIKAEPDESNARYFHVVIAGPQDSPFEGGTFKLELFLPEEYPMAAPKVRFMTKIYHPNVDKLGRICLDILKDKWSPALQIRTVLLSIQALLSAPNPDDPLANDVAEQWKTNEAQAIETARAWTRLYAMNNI
Format: functional
Activity calls are given as the source filed them.
Would you mind answering with one of these outcomes? true (1) (active), false (0) (inactive)

stdin: Hi, do you know how Oc1ccccc1Nc1nc(NCc2ccccc2)c2ccccc2n1 came out in this test?
stdout: false (0)

stdin: Thanks! And COC(=O)c1c(NC(=O)C(=O)N2CCCC2)sc2c1CC(C)(C)OC2 ?
stdout: false (0)

stdin: Thanks! And COc1ccc(Cl)cc1Nc1nc(NCCO)nc(N2CCCCC2)n1 ?
stdout: false (0)

stdin: Thanks! And COc1ccc(S(=O)(=O)N2CCN(c3ccc4nnc(-c5ccccc5)n4n3)CC2)cc1 ?
stdout: false (0)

stdin: Thanks! And CC(C)(C)OC(=O)[C@H](CCCCN)NC(=O)c1[nH]cnc1C(=O)N[C@@H](Cc1ccccc1)C(=O)OCc1ccccc1 ?
stdout: false (0)

stdin: Thanks! And C#CCOCCOCCOCCNc1nc(N2CCN(C(=O)CCCCCCCCCCNC(=O)[C@H]([C@@H](C)CC)n3cc(CCCCN=C(N)N)nn3)CC2)nc(N2CCN(C(=O)CCCCCCCCCCNC(=O)[C@H](CO)n3cc(CCCSC)nn3)CC2)n1 ?
stdout: true (1)
